Biological target: UniProt P05067
Sequence (P05067 whole entry): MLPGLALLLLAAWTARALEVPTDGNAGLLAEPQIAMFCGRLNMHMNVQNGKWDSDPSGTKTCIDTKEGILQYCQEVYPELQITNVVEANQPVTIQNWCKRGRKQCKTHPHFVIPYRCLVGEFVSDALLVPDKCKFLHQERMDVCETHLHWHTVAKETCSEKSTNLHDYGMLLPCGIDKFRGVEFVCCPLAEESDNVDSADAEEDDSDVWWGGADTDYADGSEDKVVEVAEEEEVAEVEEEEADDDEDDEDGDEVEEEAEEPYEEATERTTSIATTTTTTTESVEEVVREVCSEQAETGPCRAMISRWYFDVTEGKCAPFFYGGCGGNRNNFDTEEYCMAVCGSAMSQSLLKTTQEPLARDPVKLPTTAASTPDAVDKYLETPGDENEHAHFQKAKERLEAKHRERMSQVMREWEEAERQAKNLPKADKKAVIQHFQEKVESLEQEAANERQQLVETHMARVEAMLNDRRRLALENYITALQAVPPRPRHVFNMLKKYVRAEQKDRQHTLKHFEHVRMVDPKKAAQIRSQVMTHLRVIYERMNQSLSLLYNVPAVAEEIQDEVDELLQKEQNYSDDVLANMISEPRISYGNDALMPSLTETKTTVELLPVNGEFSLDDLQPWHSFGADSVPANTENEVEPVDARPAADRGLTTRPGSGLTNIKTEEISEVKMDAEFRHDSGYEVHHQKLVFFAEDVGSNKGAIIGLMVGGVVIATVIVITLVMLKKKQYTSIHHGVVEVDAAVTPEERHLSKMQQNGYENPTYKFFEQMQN
Assay: Inhibition of amyloid beta (1 to 42) aggregation (unknown origin)
Measured property: IC50
Please answer in the form of a number followed by its unit of measurement.

O=c1c(O)c(-c2ccc(O)c(O)c2)oc2cc(O)cc(O)c12 tested on UniProt P05067 gave IC50: 7.94 µM

* * *

Tested on: P19
Assay: Neuritogenic activity in mouse P19 derived neurons assessed as increase in neurite length at 1 nM after 18 hrs by phase contrast microscopic method relative to control
Assay type: functional
# note: exactly 60% is not below, so it is False; use True for Activity strictly under it

For orientation, consider the following solved cases.
Smiles str | Assigned label
N[C@@H](Cc1c[nH]c2ccccc12)Cn1cc(CNC(=O)/C=C/c2ccc(O)c(O)c2)nn1 | False
O=C(/C=C/c1ccc(O)c(O)c1)NCc1cn(C[C@@H]2Cc3c([nH]c4ccccc34)CN2)nn1 | True
OC[C@@H]1Cc2c([nH]c3ccccc23)CN1Cc1cn(C[C@@H]2Cc3c([nH]c4ccccc34)CN2)nn1 | False

As a next step, examine the molecule that follows.
is_below(Activity, 60%) for N[C@@H](Cc1c[nH]c2ccccc12)Cn1cc(-c2ccc(Cl)c(Cl)c2)nn1 ? False
